Test: Spectrophotometric titration, acid dissociation constants
Format: physicochemical
Conditions: 0.1 M KCl electrolyte solution, pH 10, N^1–H deprotonation; estimated from spectral change of [Fe(THP^H)] in pH 10–12.5; read-out: pKa3
Result Type: pKa

Documented pKa of CC(=O)NC(CCC(=O)NCc1[nH]c(C)cc(=O)c1O)(CCC(=O)NCc1[nH]c(C)cc(=O)c1O)CCC(=O)NCc1[nH]c(C)cc(=O)c1O [THP^H] : ~13

====

Test: Spectrophotometric titration, acid dissociation constants
Type: physicochemical
Conditions: 0.1 M KCl electrolyte solution, intrinsic pKa for THP ligands (carbonyl group of HP unit), 25 °C, 0.1 M KCl; read-out: pKa1
Answer each item with its documented pKa.
Numbers only.

Smiles Data: CC(=O)NC(CCC(=O)NCc1[nH]c(C)cc(=O)c1O)(CCC(=O)NCc1[nH]c(C)cc(=O)c1O)CCC(=O)NCc1[nH]c(C)cc(=O)c1O
pKa: 3.2

Next:
Given item Cc1c(O)c(=O)ccn1C , the value recorded as its pKa is 3.5
